Value source: PubChem BioAssay (NCI)

# Test system: NCI/ADR-RES ovarian
# PROTOCOL SUMMARY: NCI tumour cell line growth inhibition, 48 h

{"COMPOUND": "CSc1ccc(C2=Nn3c(nnc3-c3ccc(F)c(Cl)c3)SC2)cc1", "VALUE UNITS": "µM", "CENSOR SYMBOL": "=", "TGI": 22.6}
{"COMPOUND": "COC(=O)c1ccc2c(c1)C(NC(C)=O)CCc1cc(OC)c(OC)c(OC)c1-2 (stereo not given)", "VALUE UNITS": "µM", "CENSOR SYMBOL": "=", "TGI": 3.71}
{"COMPOUND": "Cc1ccc(C(=O)Cc2nc3c([nH]c2=O)c(C)nn3-c2ccccc2)c(C)c1", "VALUE UNITS": "µM", "CENSOR SYMBOL": ">", "TGI": 10}
{"COMPOUND": "C=C(C)[C@H]1CC(=O)/C(C)=C\\CC/C(C)=C/CC[C@@]2(C)O[C@@H]2C1", "VALUE UNITS": "µM", "CENSOR SYMBOL": "=", "TGI": 56}
{"COMPOUND": "COc1ccc2nc(-c3ccccc3)cc(Nc3cccc(/C(C)=N\\O)c3)c2c1", "VALUE UNITS": "µM", "CENSOR SYMBOL": ">", "TGI": 100}

---

# Tested on: DMS 114 small cell lung
# PROTOCOL SUMMARY: NCI tumour cell line growth inhibition, 48 h

{"COMPOUND": "O=C1N[C@@H]2CCC[C@@H]2[C@@H]1c1ccc(Cl)cc1", "TGI": "> 100 µM"}
{"COMPOUND": "COC1/C=C/OC2(C)Oc3c(C)c(O)c4c(c3C2=O)C(=O)C=C(NC(=O)/C(C)=C\\C=C\\C(C)C(OC=O)C(C)C(O)C(C)C(OC(C)=O)C1C)C4=O (stereo unspecified)", "TGI": "34.6 µM"}
{"COMPOUND": "CC(=O)OC1CC2(O)C(CCC3(C)C(c4ccc(=O)oc4)CCC32O)C2(C)C1=CC(O)C1OC12 (stereo unspecified)", "TGI": "0.0335 µM"}
{"COMPOUND": "Cc1cc(Cl)ccc1NC(=O)C(=O)Cc1nc2ccc(C(=O)c3ccccc3)cc2[nH]c1=O", "TGI": "> 100 µM"}
{"COMPOUND": "COC(=O)c1nc(NN)[nH]c(=O)c1CCCCCc1c(C(=O)OC)[nH]c(NN)cc1=O", "TGI": "> 100 µM"}
{"COMPOUND": "N=C(N)SCc1cn2ccccc2n1", "TGI": "> 100 µM"}

---

# Test system: PC-3 prostate
# PROTOCOL SUMMARY: NCI tumour cell line growth inhibition, 48 h
GI50 overview

{"COMPOUND": "Cc1ccc(C(=O)/C(=C/c2ccc([N+](=O)[O-])cc2)S(=O)Cc2ccccc2)cc1 (configuration not stated)", "TESTED ON": "PC-3 prostate", "GI50": "1350 nM"}
{"COMPOUND": "Clc1ccc(COC(Cn2ccnc2)c2ccc(Cl)cc2Cl)cc1 (configuration not stated)", "TESTED ON": "PC-3 prostate", "GI50": "1800 nM"}
{"COMPOUND": "CNC(=O)Nc1ccc(-c2nc(N3CCOCC3)nc3c2cnn3C2CCOCC2)cc1", "TESTED ON": "PC-3 prostate", "GI50": "80.9 nM"}
{"COMPOUND": "C[C@]12CC[C@@H]3c4ccc(O)c([N+](=O)[O-])c4CC[C@H]3[C@@H]1CC[C@@H]2NS(=O)(=O)c1ccc(C(F)(F)F)cc1", "TESTED ON": "PC-3 prostate", "GI50": "1650 nM"}
{"COMPOUND": "C[n+]1cc2c3c(ccc2c2ccc4cc5c(cc4c21)OCO5)OCO3", "TESTED ON": "PC-3 prostate", "GI50": "668 nM"}
{"COMPOUND": "COc1ccc2nc(-c3ccccc3)cc(Nc3cccc(/C(C)=N\\O)c3)c2c1", "TESTED ON": "PC-3 prostate", "GI50": "4720 nM"}
{"COMPOUND": "CC[C@H](C)[C@H](NC(=O)c1cnccn1)C(=O)N(C)[C@H](C[C@@H](OC(C)=O)c1nc(C(=O)N[C@@H](Cc2ccccc2)C[C@H](C)C(=O)OC)cs1)C(C)C", "TESTED ON": "PC-3 prostate", "GI50": "1360 nM"}
{"COMPOUND": "COc1cc(-c2csc(NC(=O)c3cc(C(F)(F)F)cc(C(F)(F)F)c3)n2)cc(OC)c1OC", "TESTED ON": "PC-3 prostate", "GI50": "1730 nM"}
{"COMPOUND": "CC1(C)N=C(N)N=C(N)N1c1ccc(CCc2ccccc2)c(Cl)c1", "TESTED ON": "PC-3 prostate", "GI50": "91.6 nM"}
{"COMPOUND": "COc1ccc(Cl)cc1Nc1nc(C(F)(F)F)ccc1C(=O)NN", "TESTED ON": "PC-3 prostate", "GI50": "2840 nM"}
{"COMPOUND": "CCN(CCCCCCCCCCN1CC(=O)N(CCCCCCCCCCN(CC)Cc2ccccc2OC)CC1=O)Cc1ccccc1OC", "TESTED ON": "PC-3 prostate", "GI50": "1140 nM"}
{"COMPOUND": "COc1cc2cc(Oc3ccc(NC(=O)c4cccc(C(F)(F)F)c4)cc3)c(C)nc2cc1OC", "TESTED ON": "PC-3 prostate", "GI50": "2850 nM"}
